Target: human serum albumin (Homo sapiens, UniProt P02768)
Sequence (P02768 25-609): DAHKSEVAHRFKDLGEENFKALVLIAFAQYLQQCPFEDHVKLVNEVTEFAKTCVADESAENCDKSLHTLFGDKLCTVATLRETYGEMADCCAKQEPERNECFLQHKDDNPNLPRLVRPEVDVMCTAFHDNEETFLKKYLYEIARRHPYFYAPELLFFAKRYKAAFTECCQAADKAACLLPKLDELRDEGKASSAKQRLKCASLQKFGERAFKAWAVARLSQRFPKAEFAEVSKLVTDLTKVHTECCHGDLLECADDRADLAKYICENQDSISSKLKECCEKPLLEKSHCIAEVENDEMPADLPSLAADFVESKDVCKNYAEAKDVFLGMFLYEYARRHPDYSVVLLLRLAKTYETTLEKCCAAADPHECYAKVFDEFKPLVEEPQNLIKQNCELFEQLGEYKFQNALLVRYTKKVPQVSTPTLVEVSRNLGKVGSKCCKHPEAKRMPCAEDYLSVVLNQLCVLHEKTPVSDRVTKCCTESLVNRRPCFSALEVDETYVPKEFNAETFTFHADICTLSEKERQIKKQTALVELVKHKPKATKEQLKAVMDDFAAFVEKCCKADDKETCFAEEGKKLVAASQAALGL
Assay: binding constant to human serum albumin (TRANSIL technology)
Details: human
Text: The effective molecular weight (MW) is obtained simply from the respective empirical formula of the substance. The waters solubilities and the typical administered dosages of these commercially available products are furthermore known from the literature. The ADME maps in FIGS. 5 to 10 show by way of example a selection of commercially available pharmaceutical substances. […]
measuredMetric: LogHSA

CCOC(=O)C1=C(C)NC(C)=C(C(=O)OC)C1c1cccc([N+](=O)[O-])c1 (stereo not drawn) [Nitrendipine]
−4.824
C=CCOc1ccccc1OCC(O)CNC(C)C (stereo not drawn) [Oxprenolol]
−3.301
CC(C)n1c(/C=C/C(O)CC(O)CC(=O)O)c(-c2ccc(F)cc2)c2ccccc21 (stereo not drawn) [Fluvastatin]
−5.678
COCCOC(=O)C1=C(C)NC(C)=C(C(=O)OC(C)C)C1c1cccc([N+](=O)[O-])c1 (stereo not drawn) [Nimodipine]
−5.000
CC(C)NCC(O)COc1ccc(CCOCC2CC2)cc1 (stereo not drawn) [Betaxolol]
−3.187
CC(=O)Nc1ccc(O)cc1 [Paracetamol]
−2.000
CC(CN1c2ccccc2Sc2ccccc21)N(C)C (stereo not drawn) [Promethazine]
−3.028
CC(C)(C)NCC(O)c1cc(O)cc(O)c1 (stereo not drawn) [Terbutaline]
−2.398
Clc1cccc(Cl)c1N=C1NCCN1 [Clonidine]
−2.463
CN1C(C(=O)Nc2ccccn2)=C(O)c2ccccc2S1(=O)=O [Piroxicam]
−5.301
NC[C@H]1CC[C@H](C(=O)O)CC1 [Tranexamic acid]
−4.000
CNC(=C[N+](=O)[O-])NCCSCc1ccc(CN(C)C)o1 [Ranitidine]
−2.155
